Reported Activity values are given for each entry in this list.
Target: Legumain (Homo sapiens)
Assay: Inhibition of AEP (unknown origin) assessed as residual activity at 1 uM using Cbz-Ala-Ala-Asn-AMC as substrate after 15 mins by fluorescence assay relative to control
endpoint_label: Activity (%)

INSERT INTO results (structure_smiles_string, readout_number) VALUES
  ('CCn1c(S)nc2c1c(=O)n(C)c(=O)n2C', 15.9),
  ('Cn1c(=O)c2c(nc(S)n2C)n(C)c1=O', 16.1),
  ('CCn1c(S)nc2c1c(=O)[nH]c(=O)n2C', 13.8),
  ('CC[C@H](C)n1c(S)nc2c1c(=O)[nH]c(=O)n2C', 14.1),
  ('Cn1ccnc1Sc1nc2c(c(=O)n(C)c(=O)n2C)n1C', 100),
  ('CC(C)n1c(S)nc2c1c(=O)n(C)c(=O)n2C', 17.8);
